- targetDesc: HCV NS3/4A protease GT1a WT (Hepatitis C virus genotype 1a, UniProt P27958, C1185S)
- Construct: His tag (cleaved yes)
- Sequence (P27958 1027-1208 C1185S): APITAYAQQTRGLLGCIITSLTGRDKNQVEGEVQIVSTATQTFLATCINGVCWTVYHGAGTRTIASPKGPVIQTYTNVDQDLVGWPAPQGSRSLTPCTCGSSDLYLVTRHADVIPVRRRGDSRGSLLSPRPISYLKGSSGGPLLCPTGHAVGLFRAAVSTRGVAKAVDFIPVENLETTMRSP
- experimentalContext: 2 nM protease preincubated 1 h at room temperature with inhibitor, pH 7.5, 200 nM fluorogenic substrate; Morrison equation global fit; error from global fit of at least three replicates
Threshold 1 nM: Ki strictly smaller gives true (1), otherwise false (0).

COc1ccc2nc(C)c(O[C@@H]3C[C@H]4C(=O)N[C@]5(C(=O)NS(=O)(=O)C6(C)CC6)C[C@H]5/C=C\CCCCC[C@H](NC(=O)OC5CCCCC5)C(=O)N4C3)nc2c1 = true (1)
COC(=O)NC1(C(=O)N[C@H]2CCCCC/C=C\[C@@H]3C[C@@]3(C(=O)NS(=O)(=O)C3(C)CC3)NC(=O)[C@@H]3C[C@@H](Oc4nc5cc(OC)ccc5nc4C)CN3C2=O)CCCC1 = false (0)
COc1ccc2nc(C)c(O[C@@H]3C[C@H]4C(=O)N[C@]5(C(=O)NS(=O)(=O)C6(C)CC6)C[C@H]5/C=C\CCCCC[C@H](NC(=O)OC5C[C@@H]6C[C@@H]6C5)C(=O)N4C3)nc2c1 (some centres unmarked) = true (1)
CCc1nc2ccc(OC)cc2nc1O[C@@H]1C[C@H]2C(=O)N[C@]3(C(=O)NS(=O)(=O)C4CC4)C[C@H]3/C=C\CCCCC[C@H](NC(=O)OC(C)(C)C)C(=O)N2C1 [5172-mcP1P3, reference compound] = false (0)

API: the following record is the query input.
# TODO verify Ki < 1 nM strictly for this molecule: `CCC1(OC(=O)N[C@H]2CCCCC/C=C\[C@@H]3C[C@@]3(C(=O)NS(=O)(=O)C3(C)CC3)NC(=O)[C@@H]3C[C@@H](Oc4nc5cc(OC)ccc5nc4C)CN3C2=O)CCCC1`
false (0)
